target.or.test.system: hBChE (Homo sapiens)
Sequence (P06276 29-602): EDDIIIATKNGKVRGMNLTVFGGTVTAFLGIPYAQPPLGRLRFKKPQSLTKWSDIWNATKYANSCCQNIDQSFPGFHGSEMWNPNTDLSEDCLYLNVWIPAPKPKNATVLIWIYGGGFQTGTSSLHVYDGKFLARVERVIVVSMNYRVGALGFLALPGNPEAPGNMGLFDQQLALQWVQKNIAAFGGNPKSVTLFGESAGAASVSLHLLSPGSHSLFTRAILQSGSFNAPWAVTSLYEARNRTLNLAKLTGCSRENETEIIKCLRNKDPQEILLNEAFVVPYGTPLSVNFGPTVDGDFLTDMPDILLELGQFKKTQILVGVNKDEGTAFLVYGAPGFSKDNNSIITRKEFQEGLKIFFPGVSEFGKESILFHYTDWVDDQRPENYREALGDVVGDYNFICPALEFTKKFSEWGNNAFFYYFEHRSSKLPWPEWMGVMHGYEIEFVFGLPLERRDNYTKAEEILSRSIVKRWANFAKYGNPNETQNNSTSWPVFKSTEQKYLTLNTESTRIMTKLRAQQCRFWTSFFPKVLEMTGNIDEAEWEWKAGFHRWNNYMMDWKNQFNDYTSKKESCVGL
assay.overview: biochemical
Type: biochemical
condition.description: hAChE over hBChE
Measured Selectivity index (IC50 hAChE/IC50 hBChE) by item

Example molecules with recorded Selectivity index (IC50 hAChE/IC50 hBChE):
Input: Which measured Selectivity index (IC50 hAChE/IC50 hBChE) belongs to CN1c2ccc(OC(=O)NCCCCCCN3CCNCC3)cc2CN2CCc3ccccc3C21 (stereo not shown) [Compound 19r] , tested on hBChE (Homo sapiens)?
Output: >100

Input: Note, next up: CN1c2ccc(OC(=O)NCCN3CCOCC3)cc2CN2CCc3ccccc3C21 (stereo not shown) [Compound 19a]
Output: >10

Input: Note, next up: CN1c2ccc(OC(=O)NCCCCCCN3CCN(C(=O)OC(C)(C)C)CC3)cc2CN2CCc3ccccc3C21 (stereo not shown) [Compound 19q]
Output: >100

Input: Note, next up: CN1c2ccc(OC(=O)NCCCCCCN3CCCCC3)cc2CN2CCc3ccccc3C21 (stereo not shown) [Compound 19p]
Output: 14

Input: Note, next up: CN1c2ccc(OC(=O)NCCCCCCCCN3CCOCC3)cc2CN2CCc3ccccc3C21 (stereo not shown) [Compound 19e]
Output: >1000

More entries:
Input: Which measured Selectivity index (IC50 hAChE/IC50 hBChE) belongs to CN1c2ccc(OC(=O)NCCCCCCN3CCCC3)cc2CN2CCc3ccccc3C21 (stereo not shown) [Compound 19o] , tested on hBChE (Homo sapiens)?
Output: 26

Input: Note, next up: CN1c2ccc(OC(=O)NCCCCCCCCCCN3CCOCC3)cc2CN2CCc3ccccc3C21 (stereo not shown) [Compound 19f]
Output: >1000
